Test system: influenza A virus minigenome (PB2, PB1, PA, NP; luciferase reporter) in 293T cells, RNP_Alaska
Assay: microbe, parasite or virus in culture
Type: cell-based
Conditions: HEK-293T, 48 h

SMILES	EC50
O=C1c2c(O)c(=O)cnn2[C@@H]([C@@H](c2ccc(F)cc2)c2cccc(C(F)(F)F)c2)[C@H]2CCCN12	< 100 nM
COC(=O)C(C)(C)OC(=O)OCOc1c2n(ncc1=O)[C@@H]([C@H](c1ccccc1)c1cccc(F)c1F)[C@H]1CCCN1C2=O	100 to 1000 nM
CC(C)(C)C(=O)OCOc1c2n(ncc1=O)[C@@H]([C@H](c1ccccc1)c1cccc(F)c1F)[C@H]1CCCN1C2=O	< 100 nM
CN1CCN(C(=O)Oc2c3n(ncc2=O)[C@@H]([C@H](c2ccccc2)c2cccc(F)c2F)[C@H]2CCCN2C3=O)CC1	100 to 1000 nM
CN(C)C(=O)OCOc1c2n(ncc1=O)[C@@H]([C@H](c1ccc(F)cc1)c1cccc(F)c1F)[C@H]1CCCN1C2=O	≥ 1000 nM
